- assayed.system: KMP-11 (Leishmania donovani, UniProt Q36736, Y48W)
- method.summary: biochemical
readout.name: Kd (nM)

molecule="CCCCCCCCCCCCCCCC(=O)OC[C@H](COP(=O)([O-])OCC[N+](C)(C)C)OC(=O)CCCCCCCCCCCCCCC [DPPC]" recorded_value=118

###

- assayed.system: KMP-11 (Leishmania donovani, UniProt Q36736, Y5W)
- method.summary: biochemical
readout.name: Kd (nM)

compound="CCCCCCCCCCCCCCCC(=O)OC[C@H](COP(=O)([O-])OCC[N+](C)(C)C)OC(=O)CCCCCCCCCCCCCCC [DPPC]" recorded_value=19.4
